Each entry below carries its reported IC50.
Tgt: human FAAH (Homo sapiens, UniProt O00519)
Construct: expressed in transfected cells
Sequence (O00519 1-579): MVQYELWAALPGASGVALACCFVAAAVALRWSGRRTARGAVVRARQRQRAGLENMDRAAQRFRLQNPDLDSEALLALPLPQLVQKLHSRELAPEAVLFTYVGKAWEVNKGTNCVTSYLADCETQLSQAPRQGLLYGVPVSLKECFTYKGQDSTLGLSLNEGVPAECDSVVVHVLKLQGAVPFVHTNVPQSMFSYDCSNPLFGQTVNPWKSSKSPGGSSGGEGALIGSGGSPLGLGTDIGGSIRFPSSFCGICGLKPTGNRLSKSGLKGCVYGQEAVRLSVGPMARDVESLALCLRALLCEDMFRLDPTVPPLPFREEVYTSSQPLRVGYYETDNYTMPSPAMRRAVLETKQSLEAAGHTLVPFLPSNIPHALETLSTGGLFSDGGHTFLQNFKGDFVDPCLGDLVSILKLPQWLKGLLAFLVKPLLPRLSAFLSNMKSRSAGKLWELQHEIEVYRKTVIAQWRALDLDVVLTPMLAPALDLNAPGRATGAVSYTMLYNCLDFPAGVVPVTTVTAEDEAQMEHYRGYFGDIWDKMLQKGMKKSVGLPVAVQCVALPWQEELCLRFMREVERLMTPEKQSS
Test description: Assay Method 1: FAAH assay, hydrolysis of 3H-anandamide by homogenate of SK-N-MC cells transfected with human FAAH
Assay type: biochemical
Condition label: human FAAH; T84 or transfected SK-N-MC cell homogenate; 3H-AEA tracer 80 nM; rt 1 h; pH 9; read-out: Assay 1 IC50

Below, each entry is followed by its recorded IC50 result.
Structure as smiles | Tgt | Observed measurement
O=C(CCCC1CCN(Cc2ccc(-c3ccccc3)cc2)CC1)c1ncco1 | human FAAH (Homo sapiens, UniProt O00519) | 0.024 µM
O=C(CCCC1CCN(Cc2ccc(C(F)(F)F)c(F)c2)CC1)c1ncco1 | human FAAH (Homo sapiens, UniProt O00519) | 0.01 µM
O=C(CCCC1CCN(C(=O)OCc2ccccc2)CC1)c1ncco1 | human FAAH (Homo sapiens, UniProt O00519) | 0.003 µM
O=C(CCCC1CCN(Cc2cc(F)cc(F)c2F)CC1)c1ncco1 | human FAAH (Homo sapiens, UniProt O00519) | 0.03 µM
O=C(CCCC1CCN(Cc2ccccc2)CC1)c1ncco1 | human FAAH (Homo sapiens, UniProt O00519) | 0.315 µM
O=C(CCCC1CCN(Cc2ccncc2)CC1)c1ncco1 | human FAAH (Homo sapiens, UniProt O00519) | 0.359 µM

## Task May I ask what IC50 has been recorded for CCc1ccc(CN2CCC(CCCC(=O)c3ncco3)CC2)cc1 ?
## Result 0.007 µM

## Task May I ask what IC50 has been recorded for CC(C)(C)OC(=O)N1CCC(CCCC(=O)c2ncc(-c3ccco3)o2)CC1 ?
## Result 0.002 µM

## Task May I ask what IC50 has been recorded for CC(C)OC(=O)N1CCC(CCCC(=O)c2ncco2)CC1 ?
## Result 0.004 µM

---

Each entry below carries its reported IC50.
Tgt: human FAAH (Homo sapiens)
Construct: expressed in transfected cells
Test description: Assay Method 1: FAAH assay, hydrolysis of 3H-anandamide by homogenate of SK-N-MC cells transfected with human FAAH
Type: biochemical
Condition label: human FAAH; T84 or transfected SK-N-MC cell homogenate; 3H-AEA tracer 80 nM; rt 1 h; pH 9; read-out: Assay 1 IC50
Structures can show the parent of a compound that is named as a salt.
A number alone suffices; assume nM.

Below, each entry is followed by its recorded IC50 result.
Compound | Tgt | Result unit | IC50
Cc1cccc2cc(CN3CCC(CCCC(=O)c4ncco4)CC3)c(Cl)nc12 [Example 99] | human FAAH (Homo sapiens) | nM | 5
O=C(CCCC1CCN(Cc2ccc(F)c(F)c2)CC1)c1ncco1 [Example 115] | human FAAH (Homo sapiens) | nM | 78
O=C(CCCC1CCN(Cc2ccc(F)c(Cl)c2)CC1)c1ncco1 [Example 13] | human FAAH (Homo sapiens) | nM | 50
Cc1ccc(S(=O)(=O)N2CCC(CCCC(=O)c3ncc(-c4cccc(C(=O)O)n4)o3)CC2)cc1 [Example 151, trifluoroacetic acid salt] | human FAAH (Homo sapiens) | nM | 21
Cc1ccc(S(=O)(=O)N2CCC(CCCC(=O)c3ncco3)CC2)cc1 [Example 52] | human FAAH (Homo sapiens) | nM | 1040
CC(c1ccccc1)N1CCC(CCCC(=O)c2ncco2)CC1 (stereo not drawn) [Example 142] | human FAAH (Homo sapiens) | nM | 190
O=C(O)c1cnc(C(=O)CCCC2CCN(Cc3cccc(-c4ccccc4)c3)CC2)o1 [Example 143, trifluoroacetic acid salt] | human FAAH (Homo sapiens) | nM | 14
COc1cccc(-c2ccc(CN3CCC(CCCC(=O)c4ncco4)CC3)cn2)c1 [Example 104] | human FAAH (Homo sapiens) | nM | 4
O=C(CCCC1CCN(S(=O)(=O)CCc2ccccc2)CC1)c1ncco1 [Example 54] | human FAAH (Homo sapiens) | nM | 6
O=C(CCCC1CCN(C(=O)OCCOCc2ccccc2)CC1)c1ncco1 [Example 66] | human FAAH (Homo sapiens) | nM | 0.7

## Task Which IC50 is reported with human FAAH (Homo sapiens) for this entry: CC(C)Oc1cccc(CN2CCC(CCCC(=O)c3ncco3)CC2)c1 [Example 135] ?
## Result 5

## Task Which IC50 is reported with human FAAH (Homo sapiens) for this entry: O=C(CCCC1CCN(Cc2cc3ccccc3nc2Cl)CC1)c1ncco1 [Example 97] ?
## Result 12

## Task Which IC50 is reported with human FAAH (Homo sapiens) for this entry: O=C(CCCC1CCN(Cc2cccc(Cl)c2)CC1)c1ncco1 [Example 10] ?
## Result 60

## Task Which IC50 is reported with human FAAH (Homo sapiens) for this entry: O=C(CCCC1CCN(C(=O)c2ccccc2)CC1)c1ncco1 [Example 28] ?
## Result 67

## Task Which IC50 is reported with human FAAH (Homo sapiens) for this entry: O=C(CCCC1CCN(Cc2ccc(-c3ccco3)nc2)CC1)c1ncco1 [Example 109] ?
## Result 55

## Task Which IC50 is reported with human FAAH (Homo sapiens) for this entry: O=C(CCCC1CCN(Cc2cccc(OC3CCCCC3)c2)CC1)c1ncco1 [Example 136] ?
## Result 1

## Task Which IC50 is reported with human FAAH (Homo sapiens) for this entry: CC(C)c1ccc(CN2CCC(CCCC(=O)c3ncc(-c4cccc(C(=O)O)n4)o3)CC2)cc1 [Example 148, trifluoroacetic acid salt] ?
## Result 60

## Task Which IC50 is reported with human FAAH (Homo sapiens) for this entry: O=C(CCCC1CCN(C(=O)CCc2ccc(Oc3ccccc3)cc2)CC1)c1ncco1 [Example 37] ?
## Result 22

---

Tgt: rat FAAH (Rattus norvegicus)
Sequence (P97612 1-579): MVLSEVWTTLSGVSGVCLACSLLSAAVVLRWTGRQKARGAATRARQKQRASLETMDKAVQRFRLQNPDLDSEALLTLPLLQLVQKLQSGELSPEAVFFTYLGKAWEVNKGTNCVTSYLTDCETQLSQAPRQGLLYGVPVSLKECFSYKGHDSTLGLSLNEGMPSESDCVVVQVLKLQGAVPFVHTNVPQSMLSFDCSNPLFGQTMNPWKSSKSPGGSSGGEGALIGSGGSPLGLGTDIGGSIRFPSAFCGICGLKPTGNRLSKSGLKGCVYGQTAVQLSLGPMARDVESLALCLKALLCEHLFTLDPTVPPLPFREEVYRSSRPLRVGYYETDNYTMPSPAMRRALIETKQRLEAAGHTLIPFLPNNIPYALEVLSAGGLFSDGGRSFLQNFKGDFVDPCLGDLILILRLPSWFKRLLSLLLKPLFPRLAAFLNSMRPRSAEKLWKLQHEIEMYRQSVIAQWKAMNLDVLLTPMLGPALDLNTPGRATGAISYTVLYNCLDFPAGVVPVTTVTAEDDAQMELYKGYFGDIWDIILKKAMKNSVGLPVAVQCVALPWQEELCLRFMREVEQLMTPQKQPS
pIC50: −log10 of the molar value.
Respond with t for pIC50 values of 7 and above, f for values below.

Use the examples below as a reference point.
Compound | Category label
Cc1ccccc1CN1CCC(CCCC(=O)c2ncco2)CC1 | f
O=C(CCCC1CCN(Cc2ccco2)CC1)c1ncco1 | f

Please find the next compound below.
## Task Check this compound for pIC50 at or above 7: O=C(CCCC1CCN(Cc2cccc(F)c2F)CC1)c1ncco1
## Result f

---

Tgt: rat FAAH (Rattus norvegicus)
Sequence (P97612 1-579): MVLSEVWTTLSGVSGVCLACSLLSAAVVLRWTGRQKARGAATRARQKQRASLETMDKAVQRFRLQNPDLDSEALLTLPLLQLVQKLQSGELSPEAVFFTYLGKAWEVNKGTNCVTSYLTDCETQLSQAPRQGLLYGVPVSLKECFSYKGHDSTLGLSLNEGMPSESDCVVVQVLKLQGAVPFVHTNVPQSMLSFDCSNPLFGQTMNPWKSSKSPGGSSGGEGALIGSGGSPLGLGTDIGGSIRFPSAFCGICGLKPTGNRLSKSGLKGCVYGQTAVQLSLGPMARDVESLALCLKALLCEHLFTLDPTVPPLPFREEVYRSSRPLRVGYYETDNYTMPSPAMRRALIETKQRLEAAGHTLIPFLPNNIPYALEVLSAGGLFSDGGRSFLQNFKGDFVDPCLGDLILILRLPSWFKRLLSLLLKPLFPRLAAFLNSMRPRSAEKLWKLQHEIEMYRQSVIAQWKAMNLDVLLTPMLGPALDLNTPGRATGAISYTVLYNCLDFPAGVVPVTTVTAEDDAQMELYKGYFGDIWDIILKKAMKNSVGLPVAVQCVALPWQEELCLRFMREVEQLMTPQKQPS
Structures can show the parent of a compound that is named as a salt.
Labelling: IC50 reported below 80 nM becomes class 1; at or above becomes class 0.

Use the examples below as a reference point.
Molecule | Category label
O=C(CCCC1CCN(Cc2cc(F)c(F)c(F)c2)CC1)c1ncco1 [Example 131] | class 0
O=C(CCCC1CCN(Cc2ccccc2Cl)CC1)c1ncco1 [Example 84] | class 0
O=C(CCCC1CCN(Cc2ccc(Cl)c(C(F)(F)F)c2)CC1)c1ncco1 [Example 133] | class 0
CC(C)Oc1ccc(CN2CCC(CCCC(=O)c3ncco3)CC2)cc1 [Example 23] | class 1
O=C(O)c1cnc(C(=O)CCCC2CCN(Cc3cccc(-c4ccccc4)c3)CC2)o1 [Example 143, trifluoroacetic acid salt] | class 1

## Task Report whether reported IC50 is lower than 80 nM (strictly) for O=C(CCCC1CCN(S(=O)(=O)c2ccc(F)cc2)CC1)c1ncco1 [Example 55]
## Result class 0

## Task Report whether reported IC50 is lower than 80 nM (strictly) for CC(C)(C)c1ccc(CN2CCC(CCCC(=O)c3ncco3)CC2)cc1 [Example 83]
## Result class 0

## Task Report whether reported IC50 is lower than 80 nM (strictly) for O=C(CCCC1CCN(Cc2ccc(Cl)c(Cl)c2)CC1)c1ncco1 [Example 12]
## Result class 1

## Task Report whether reported IC50 is lower than 80 nM (strictly) for O=C(CCCC1CCN(Cc2ccc(Cl)cc2)CC1)c1ncco1 [Example 9]
## Result class 0

Provenance of the data: patent US20090111778A1
